Numbers sourced from patent US20090105116A1.

molecular target: CaCdc42 (R150K), sNBD-labeled and GMPPCP-loaded (Candida albicans); assay: fluorescence cross-titration of sNBD-labeled CaCdc42 (R150K) in the presence of 50 µM mCst20
READOUT TYPE: Kd (µM)
Numbers only, in µM.

For the binder GSYTGLPIEWERLLSASGITKK (modifications not checked) [cCst20, P0CY24 491-512] , what Kd is on record?
207
